assay: Decomposition in aqueous solution; assay type: physicochemical; conditions: neutral pH, room temperature (20–25° C.)
Measured half-life, listed per entry for reference.

C[C@H](N)C(=O)N1CCCC1B(O)O (mixture of isomers) | ~0.5 h

Now for the compound whose half-life we want.
Q) Hello, please tell me recorded half-life for this one: O=C([C@@H]1CCCN1)N1CCCC1B(O)O (mixture of isomers)
A) ~1.5 h
